These measurements were taken from patent US9839629B2.

Study system: ROMK (Kir1.1) channel (Homo sapiens, UniProt P48048)
Sequence (P48048 whole entry): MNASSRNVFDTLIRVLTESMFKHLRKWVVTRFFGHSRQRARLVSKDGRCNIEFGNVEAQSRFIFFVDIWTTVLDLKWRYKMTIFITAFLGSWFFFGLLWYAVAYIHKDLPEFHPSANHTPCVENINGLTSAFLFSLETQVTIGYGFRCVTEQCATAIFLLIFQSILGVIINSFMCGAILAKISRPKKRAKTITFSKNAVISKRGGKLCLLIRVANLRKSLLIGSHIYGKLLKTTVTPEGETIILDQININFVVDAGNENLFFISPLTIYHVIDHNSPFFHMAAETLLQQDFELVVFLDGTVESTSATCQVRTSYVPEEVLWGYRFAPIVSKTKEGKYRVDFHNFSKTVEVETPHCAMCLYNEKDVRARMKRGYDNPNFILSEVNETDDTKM
Protocol text: Thallium Flux Assay
Procedure: A Thallium Flux Assay was performed on each of the final product compounds in the Examples. When the final product of an Example was an HCl salt, the salt was run in the Assay. This assay has been described previously; see, e.g., PCT Published Application WO 2013/062900.
Flag rule - IC50 less than 100 nM flags Y; the remaining entries get N.

CCOC1OC(=O)C=C1N1CCC2(CCN(C[C@H](O)c3ccc4c(c3C)COC4=O)CC2)CC1 (stereo partly drawn) :: N
CC1=C(N2CCC3(CCN(C[C@@H](O)c4cccc(-n5cnnn5)n4)CC3)CC2)COC1=O :: Y
CC1=C(N2CCC3(CC2)CCN([C@@H](CO)c2ccc(-n4cnnn4)cc2C)CC3)COC1=O :: N
O=C1C=C(N2CCC3(CCN(C(=O)C4CCc5cc(-n6cnnn6)ncc54)CC3)CC2)CO1 (stereo not drawn) :: N
CO[C@@H](CN1CCC2(CC1)CCN(C1=CC(=O)OC1)CC2)c1ccc2c(c1C)COC2=O :: N
O=C1C=C(N2CCC3(CCN(C(=O)Cc4cc(F)c(-n5cnnn5)cc4F)CC3)CC2)CO1 :: N
Cc1nc(-n2cnnn2)ccc1[C@H](O)CN1CCC2(CC1)CCN(C1=CC(=O)CC1)CC2 :: N
CC1=C(N2CCC3(CCN(C[C@H](O)c4cccc(-n5cnnn5)c4)CC3)CC2)COC1=O :: Y
O=C1C=C(N2CCC3(CCN(C(=O)Cc4cnc(-n5cnnn5)c(F)c4)CC3)CC2)CO1 :: N
CC1=C(N2CCC3(CCN(C[C@H](O)c4ccc5c(c4C)COC5=O)CC3)[C@@H](O)C2)COC1=O :: N

Turning now to a further record.
Quick check: does "O=C1C=C(N2CCC3(CCN(C(=O)Cc4ccc(-n5cnnn5)nc4)CC3)CC2)CO1" have IC50 under 100 nM?
N

====

Study system: ROMK (Kir1.1) channel (Homo sapiens)
Protocol text: Thallium Flux Assay
Property name: IC50 (nM)
Give bare numbers, in nM.

Example entries and their recorded answers appear below.
CC1=C(N2CCC3(CCN(C[C@H](O)c4ccc5c(c4C)COC5=O)CC3)CC2=O)COC1=O [Example 28] :: 552
Cc1c([C@@H](O)CN2CCC3(CC2)CCN(C2=CC(=O)OC2)C(=O)C3)ccc2c1COC2=O [Example 27] :: 433
COCO[C@H]1CN(C2=C(C)C(=O)OC2)CCC12CCN(C[C@H](O)c1ccc3c(c1C)COC3=O)CC2 [Example 95] :: 114
CC1=C(N2CCC3(CCN(C[C@@H](O)c4ccccc4-n4cnnn4)CC3)CC2)COC1=O [Example 69] :: 634
O=C1C=C(N2CCC3(CCN(C[C@@H](O)c4ccc(-n5cnnn5)nn4)CC3)CC2)CO1 [Example 17] :: 91

// each listed molecule needs a value for IC50
1. Cc1c([C@@H](O)CN2CCC3(CC2)CCN(C2=CC(=O)OCC2)CC3)ccc2c1COC2=O [Example 93]
2. CC1=C(N2CCC3(CCN(C[C@H](O)c4ccc(-n5cnnn5)cc4F)CC3)CC2)COC1=O [Example 53]
3. Cc1c(N2CCC3(CCN(C[C@H](O)c4ccc(-n5cnnn5)cn4)CC3)CC2)c(=O)c1=O [Example 87]
4. Cc1c([C@@H](O)CN2CCC3(CC2)CCN(C2=CC(=O)OC2C)CC3)ccc2c1COC2=O (stereo partly shown) [Example 37]
5. O=C1C=C(N2CCC3(CCN(C[C@@H](O)c4ccc(-n5cnnn5)nc4)CC3)CC2)CO1 [Example 19]

1: 146; 2: 14; 3: 688; 4: 140; 5: 74
